Hi there, I'd appreciate the recorded growth for every entry that follows.
- Test system: SF-295 CNS
- experiment_description: NCI-60 one-dose screen, 48 h (100 = growth as untreated, 0 = no growth, -100 = all killed)
- experimental_conditions: 10 µM unless noted
About 83,000 compounds went through this panel and 20% of them were active in at least one assay; those are over-represented in the sample as a whole.
Give bare numbers, in %.

{"molecule": "O=c1[nH]nc(-c2ccccc2)c2sc3ncc(-c4ccc(Br)cc4)n3c12", "growth [%]": 48.9}
{"molecule": "C=C(C)[C@@H]1CC[C@]2(CN)CC[C@]3(C)[C@H](CC[C@@H]4[C@@]5(C)CCCNC(C)(C)[C@@H]5CC[C@]43C)[C@@H]12", "growth [%]": -59.6}
{"molecule": "C=C1C(=O)O[C@H]2[C@H]1CC/C(COC(=O)NCc1c[nH]c3ccc(F)cc13)=C\\CC[C@@]1(C)O[C@@H]21", "growth [%]": 61.2}
{"molecule": "CCOC(=O)CSc1nc2ccccc2c(=O)n1Cc1ccc(S(N)(=O)=O)cc1", "growth [%]": 99.4}

Fill in growth for each of the 3 compounds listed.
1. NCCCCCCNc1cc(-c2cccc(OC(F)(F)F)c2)nc2ccc(N3CCCC3)cc12
2. C[C@H]1[C@H](C)CC[C@]2(C(=O)Nc3ccc4ncccc4c3)CC[C@]3(C)C(=CC[C@@H]4[C@@]5(C)CCCNC(C)(C)[C@@H]5CC[C@]43C)[C@H]12
3. O=S(=O)(NCCNc1nccc(-c2c(-c3cccc(O)c3)nc3occn23)n1)c1ccccc1

[-69.1, -50.8, 96.6]

Could I get growth for every one of these entries?
1. C=CCn1c(-c2ccc(-c3nc4ccc(C)cc4[nH]3)cc2)n[nH]c1=S
2. COc1cc(F)c(/C=C/c2cc(/C=C/c3cc(OC)c(OC)cc3F)on2)cc1OC

1: 92.1; 2: 97.7

* * *

- System: OVCAR-5 ovarian
- experiment_description: NCI-60 one-dose screen, 48 h (100 = growth as untreated, 0 = no growth, -100 = all killed)
- experimental_conditions: 10 µM unless noted
Compounds without any hit were thinned out: in the full panel of roughly 83,000, 20% have a hit.
reported_endpoint: growth (%)
Answers are plain numbers, in %.

Guide cases for growth, answers given:
{"molecule": "CCCC/C=N/NC(=S)NCc1ccccc1", "growth (%)": 92.7}
{"molecule": "N#CC1=C(N)Oc2c(ccc3ccccc23)C1c1ccccc1Cl (stereo unspecified)", "growth (%)": 38.8}
{"molecule": "CC1(C)c2[nH]c3ccccc3c2C[C@]2(C)[C@H]3C(=O)C=C4[C@@H]5C[C@@](C)(C(N)=O)CC[C@]5(C)CC[C@@]4(C)[C@]3(C)CC[C@@H]12", "growth (%)": 93.3}
{"molecule": "C=C(CBr)[C@@H]1CC[C@]2(COC(C)=O)CC[C@]3(C)[C@H](CC[C@@H]4[C@@]5(C)CCCNC(C)(C)[C@@H]5CC[C@]43C)[C@@H]12", "growth (%)": 87.3}
{"molecule": "Cn1c(N2NC(=O)C(N=Nc3ccc(S(N)(=O)=O)cc3)C2=O)nc(-c2ccco2)c(C#N)c1=O (stereo unspecified)", "growth (%)": 115}

Turning now to a further molecule:
GET /value?item= CCc1c(Cl)nc(N)nc1Nc1ccc(C)c(C)c1 &field=growth returns 110

* * *

- System: SNB-19 CNS
- experiment_description: NCI-60 one-dose screen, 48 h (100 = growth as untreated, 0 = no growth, -100 = all killed)
- experimental_conditions: 10 µM unless noted
- Method: Growth inhibition of the SNB-19 human tumor cell line is measured as a screen for anti-cancer activity. Cells are grown in 96 well plates and exposed to the test compound for 48 hours. Compounds are tested at a single concentration, which is 10^-5 M for most compounds. The reported endpoint is percent growth (GI% or GIPRCNT), where numbers from 0 - 100% represent growth inhibition, and numbers from -100% - 0 represent cell death. For example, a value of 40 represents 60% growth inhibition. […]
The panel holds about 83,000 compounds, 20% with a hit somewhere; the sample as a whole holds those more often.
reported_endpoint: growth (%)
Answers are plain numbers, in %.

Consider the following illustrative entries.
{"molecule": "Cn1cc(-c2csc(-c3c[nH]c4ccccc34)n2)c2ccnc(Cl)c21", "assayed_system": "SNB-19 CNS", "unit_symbol": "%", "growth": 94}
{"molecule": "Cn1ccnc1C(=O)/C=C/c1ccc(CC(=O)NC2CCCCC2)cc1", "assayed_system": "SNB-19 CNS", "unit_symbol": "%", "growth": 46.2}
{"molecule": "Cc1cc(Cl)nc(N(CCNc2ccnc3cc(Cl)ccc23)Cc2ccccn2)n1", "assayed_system": "SNB-19 CNS", "unit_symbol": "%", "growth": 62.5}

Read the next record carefully.
Just so you know, measured growth for O=C(CSc1nc2sc3c(c2c(=O)n1-c1ccc(Cl)cc1)CCCC3)Nc1nc(-c2cccc(Br)c2)cs1 came out at 84.8

* * *

So I've got a bunch of compounds here, and I need their growth values.
- Test system: A549/ATCC NSCLC
- experiment_description: NCI-60 one-dose screen, 48 h (100 = growth as untreated, 0 = no growth, -100 = all killed)
- experimental_conditions: 10 µM unless noted
This is part of a sample that, as a whole, favours compounds with a hit. Of some 83,000 tested, about 20% had one in any assay.
Answers are plain numbers, in %.

Example entries and their recorded answers appear below.
{"compound": "COc1ccc2[nH]c(=O)c(CN3CCN(c4nccc(-c5ccc(Cl)cc5)n4)CC3)cc2c1", "unit_symbol": "%", "value": 73.9}
{"compound": "CN1CCN(C(=O)[C@]23CCC(C)(C)C[C@H]2C2=CC[C@@H]4[C@@]5(C)C/C(=C/c6cccnc6)C(=O)C(C)(C)[C@@H]5CC[C@@]4(C)[C@]2(C)CC3)CC1", "unit_symbol": "%", "value": 47}
{"compound": "COc1cc2oc(-c3cccc(C(=O)Nc4ccccc4)c3)cc(=O)c2c(O)c1OC", "unit_symbol": "%", "value": 60.3}

Quick request: growth for each listed item, please.
1. C=C(C)[C@@H]1CC[C@]2(C(=O)N3CCN(C)CC3)CC[C@]3(C)[C@H](CC[C@@H]4[C@@]5(C)C/C(=C/c6cccnc6)C(=O)C(C)(C)[C@@H]5CC[C@]43C)[C@@H]12
2. CCN(CC)CCOc1ccc(NC(=O)C(C(C)C)N2C(=O)/C(=C/c3ccc(Br)cc3)SC2=S)cc1 (stereo not drawn)
3. Cc1ccc(CNc2c3ccccc3nc3cc(NC(=O)CCN4CCCC4)ccc23)cc1

49.4
16.6
-36.9

* * *

- Tested on: NCI-H23 lung
- experiment_description: NCI-60 one-dose screen, 48 h (100 = growth as untreated, 0 = no growth, -100 = all killed)
- experimental_conditions: 10 µM unless noted
About 83,000 compounds went through this panel and 20% of them were active in at least one assay; those are over-represented in the sample as a whole.
So basically: growth at 90% or higher? That is Met. Lower than 90%? That is Not met.

{"compound": "COc1ccc(C(=O)c2nc3ccccc3n2CC(=O)c2ccc(Cl)cc2)cc1", "assayed_system": "NCI-H23 lung", "category": "Not met"}

Does the compound O=C(/C(=C\c1ccc([N+](=O)[O-])cc1)S(=O)Cc1ccc(F)cc1)c1ccc(F)cc1 (stereo not given) have recorded growth that is 90% or more?
Not met

For this compound, is measured growth 90% or higher? Cn1cc(CC2CC(=O)N(c3ccccc3)C2=O)sc1=NC(=O)c1ccccc1 (stereo not given)
Met

Would you say C[C@H]1[C@H]2[C@H]3CC[C@@H]4[C@@]5(C)CC[C@H](O)C(C)(C)[C@@H]5CC[C@@]4(C)[C@]3(C)CC[C@]23CO[C@]1(C)[C@@H](C(=O)/C=C\c1ccco1)C3 shows growth at minimum 90%?
Met

* * *

- System: U251 CNS
- experiment_description: NCI-60 one-dose screen, 48 h (100 = growth as untreated, 0 = no growth, -100 = all killed)
- experimental_conditions: 10 µM unless noted
This is part of a sample that, as a whole, favours compounds with a hit. Of some 83,000 tested, about 20% had one in any assay.
Would you please tag the item class 1 when its growth is 60% or above, and class 0 when it is below?

Worked set:
{"molecule": "COc1cc(/C=C\\c2cc(OC)c(OC)c(OC)c2)cc(N)c1OC", "category": "class 1"}
{"molecule": "CC1=CCC(OC(=O)C(C)(O)CCC(O)(C(=O)OC2(C)C=CC(O)(C(C)C)CC2)C(C)C)(C(C)C)CC1 (centres undefined)", "category": "class 1"}
{"molecule": "COC(=O)C(OC(C)=O)C(OC(C)=O)c1ccc(OC)c(OC)c1 (centres undefined)", "category": "class 1"}
{"molecule": "CN(C)CCC(=O)c1ccc([N+](=O)[O-])cc1", "category": "class 1"}
{"molecule": "C=C1C(=O)O[C@H]2[C@H]1CC/C(CNC(=O)CCc1ccc(OC)cc1)=C\\CC[C@@]1(C)O[C@@H]21", "category": "class 1"}

growth >= 60% for Cc1cccc(C)c1N=c1oc2ccc(Cl)cc2nc1-c1ccccc1O ?
class 1
